system: IGROV-ET; experiment: SRB colorimetric assay of cell growth and viability, IGROV-ET; type: cell-based, human; conditions: 48 hours exposure, SRB; read-out: LC50 IGROV-ET
Consider the following compounds and their measured CC50 readings.
Value expressed in µM; do not type the unit.

As a guide, the following entries are already answered.
C/C=C1\NC(=O)[C@H](Cc2ccccc2)NC(=O)[C@@H](C(C)C)NC(=O)[C@@H]([C@@H](C)CC)NC(=O)[C@H](NC(=O)[C@H](NC(=O)[C@H](CCCNC(=O)C(F)(F)F)NC(=O)[C@H]2CCCN2C(=O)[C@H](NC(=O)[C@@H](NC(=O)[C@@H](NC(=O)[C@H](NC(=O)CC[C@@H](C)CC)C(C)C)[C@@H](C)O)C(C)C)C(C)C)[C@@H](C)CC)[C@@H](C)OC(=O)[C@H](C(C)C)NC1=O [Compound 96] | 0.619
C/C=C1\NC(=O)[C@H](Cc2ccccc2)NC(=O)[C@@H](C(C)C)NC(=O)[C@@H]([C@@H](C)CC)NC(=O)[C@H](NC(=O)[C@H](NC(=O)[C@H](CCCN)NC(=O)[C@H]2CCCN2C(=O)[C@H](NC(=O)[C@@H](NC(=O)[C@@H](NC(=O)[C@H](NC(=O)CC[C@@H](C)[C@H]2CC[C@H]3[C@@H]4CC[C@@H]5C[C@H](OC(=O)C(F)(F)F)CC[C@]5(C)[C@H]4CC[C@]23C)C(C)C)[C@@H](C)OC(=O)C(F)(F)F)C(C)C)C(C)C)[C@@H](C)CC)[C@@H](C)OC(=O)[C@H](C(C)C)NC1=O [Compound 97] | 2.38
C/C=C1\NC(=O)[C@H](Cc2ccccc2)NC(=O)[C@@H](C(C)C)NC(=O)[C@@H]([C@@H](C)CC)NC(=O)[C@H](NC(=O)[C@H](NC(=O)[C@H](CCCN)NC(=O)[C@H]2CCCCN2C(=O)[C@H](NC(=O)[C@@H](NC(=O)[C@@H](NC(=O)[C@H](NC(=O)CC[C@@H](C)CC)C(C)C)[C@@H](C)O)C(C)C)C(C)C)[C@@H](C)CC)[C@@H](C)OC(=O)[C@H](C(C)C)NC1=O [Compound 60, [D-Pip^9, (4S)-MeHex^14]-KF] | 5.95

Alright, here's another compound for you.
Quick note, CC50 for C/C=C1\NC(=O)[C@H](Cc2ccccc2)NC(=O)[C@@H](C(C)C)NC(=O)[C@@H]([C@@H](C)CC)NC(=O)[C@H](NC(=O)[C@H](NC(=O)[C@H](CCCNC(=O)CCCC[C@@H]2SC[C@@H]3NC(=O)N[C@@H]32)NC(=O)[C@H]2CCCN2C(=O)[C@H](NC(=O)[C@@H](NC(=O)[C@@H](NC(=O)[C@H](NC(=O)CCCC(C)C)C(C)C)[C@@H](C)O)C(C)C)C(C)C)[C@@H](C)CC)[C@@H](C)OC(=O)[C@H](C(C)C)NC1=O [Compound 99, [Orn(Biot)^8]-Kahalalide F] landed at 4.04

// data source = patent US20070117743A1
